// provenance: the supplement of paper PMC9170038

System: MS2 coat protein
assay-info: apparent KD of MS2 coat protein; designed switch direction (-1 OFF switch, 1 ON switch): 1; higher = weaker reporter binding
protocol-conditions: input ligand: microRNA oligo, concentration not stated
value-type: apparent KD of MS2 coat protein
# number then unit; no other words

-- ask State its apparent KD of MS2 coat protein: UGCUAGUGGGUAGGAUAUUUAGGAUAUGGGAAAGACUAAGUCUGUAGGUCACCUAACCCAGAAGGAGAGAAGGACCCUUCAGCU [pwkr ssNG2 2FMN + F9.28] (Eterna round: R96, puzzle: Same State NG 2)
-- reply 13.9 nM

-- ask Input GUAGCAUACCGAGGAUAUUCAUAUUACAUGAGGAUCACCCAUGUUAUUUAGGCCAAAAGGCCUUGGGAGAAGGCGGAAUGCUAC [Xeonanis - 20 Mod8] (Eterna round: R96, puzzle: Same State NG 2) , output reported apparent KD of MS2 coat protein.
-- reply 9.17 nM

----------
System: MS2 coat protein
assay-info: apparent KD of MS2 coat protein, switch OFF state (with FMN for OFF switches, without FMN for ON switches); designed switch direction (-1 OFF switch, 1 ON switch): 1; higher = weaker reporter binding
protocol-conditions: FMN input: 0 or 200 uM; Eterna round: R93 (includes R88 designs)
value-type: apparent KD of MS2 coat protein (nM)
Give your result in nM as a bare value.

-- ask Answer with apparent KD of MS2 coat protein of AGAAAUAAAGCGAAGGAUAUCCAAACCUAAACAUGAGGAUCACCCAUGUAAAAGAAAAUAAAAUGGGAGAAGGUCGCAAAUAAGA [Designing denovo 14] measured for MS2 coat protein.
-- reply 22.8

-- ask State measured apparent KD of MS2 coat protein of the sequence GGGAGGAAGAGAGAGGAUAUCCAAAGGAAAACAUGAGGAUCACCCAUGUAAAAGGUAGGAAAUUGGGAGAAGGCUCAAGAGAACG [salish99-ss2-056] with MS2 coat protein.
-- reply 28.9

-- ask Answer with apparent KD of MS2 coat protein of AACUAACAUGAGGAUCACCCAUGUAAUCAAACAUGAGGAUAUAUAACACAUCAUCAACAGAUAGAAGGCAUAAAUA [JR_SS001_Sub1203] measured for MS2 coat protein.
-- reply 62.7

-- ask System MS2 coat protein. Read-out apparent KD of MS2 coat protein. Item AUAUAUAUAAGGAAGGAUAUCUUAGAAAAAACAUGAGGAUCACCCAUGUAAAUAAAGAAUAAAUGGGAGAAGGUCCAUAUAUAUA [77%, More Tesla, 10] . Report value.
-- reply 109

-- ask Report value only: apparent KD of MS2 coat protein, MS2 coat protein, GAAAAACAUGAGGAUCACCCAUGUGGAAAUAUGGGAGGAUAUACAAAGACGGAAGUCAAAGUAGAAGGCCUAAAAG [Mat - Same State 1 - Eli mod - D10]
-- reply 119

-- ask Consider the sequence GAGGACAUAGUACAGGAUAUAUGAAUAGUCACAUGAGGAUCACCCAUGUGCAUUUAUAUGCGCACAUAGAAGGGUGGUAGUUAUC [SameState2 Malc#28] tested on MS2 coat protein; state its apparent KD of MS2 coat protein.
-- reply 67

-- ask Answer with apparent KD of MS2 coat protein of CGAAAGUAUGCACAGGAUAUGUACAGGCUAACAUGAGGAUCACCCAUGUGAAAAUGGACCAUGUCGCAGAAGGGUGCCCUCCCGA [Mageor] measured for MS2 coat protein.
-- reply 40.2

-- ask State the measured apparent KD of MS2 coat protein (MS2 coat protein) of GGGAGACAUGAGGAUCACCCAUGUAGAAGGAUGGGAGGAUAUACAAAGACGAGAGUCAGAGUAGAAGGCCUAGGAA [salish99-ss1-189-4KCAL]
-- reply 58.5

-- ask Give apparent KD of MS2 coat protein for this entry on MS2 coat protein: AGAAAUAAAAGAGAGGAUAUGCAAAAGAUAACAUGAGGAUCACCCAUGUAAAAGAAAAUAAAUGGGUAGAAGGCUCAAAAUAAGA [Jieux modified]
-- reply 64.9

-- ask Answer with apparent KD of MS2 coat protein of AAAAAACAUGAGGAUCACCCAUGUCUUCGGACGUGAGGAUAUGUACAGACUUCGGUCUGUACAGAAGGCAUGUAAA [SS1 - 1052] measured for MS2 coat protein.
-- reply 186

-- ask Quote apparent KD of MS2 coat protein with test system MS2 coat protein for AUACGUACGUAUGAGGAUAUCCAUAAUAAGACAUGAGGAUCACCCAUGUAAACAAAACAAUAAUGGGAGAAGGCAUACGUACGAU [SS 2 M 50]
-- reply 54.8

-- ask # lookup: MS2 coat protein apparent KD of MS2 coat protein, key = AAAAAAUAAAAAAAGGAUAUAAUGCUACAGACAUGAGGAUCACCCAUGUAGGUAGCAAAAAUAAAAAAGAAGGAAAAAUAAAAAA [SS2: MS2 31]
-- reply 13.1

----------
Test system: MS2 coat protein
assay-info: apparent KD of MS2 coat protein; higher = weaker reporter binding
protocol-conditions: Eterna round: R107; input ligand: arginine 13.2 mM
Please mark criterion met if the recorded apparent KD of MS2 coat protein is equal to or greater than 30 nM, and criterion not met if it falls below.

-- ask Decide: is the reported value of apparent KD of MS2 coat protein for AUAACAUGAGGAUCACCCAUGUAAGCUGAAGGAGCGCUGGAAACAGCAGGUAGGUCGCAGCGGCGACCUUCAUGGGUAAGGUCGC [(M1)-(M2)-(Arg1)-(Arg2)-(A)'-(M)'-(A)''_Design4] equal to or greater than 30 nM?
-- reply criterion met

-- ask Does apparent KD of MS2 coat protein meet or surpass 30 nM for AAACAUUGCUCAGAUACCAGACAUGAGGAUCACCCAUGUACCAAGGUAAAGAAAUAACGUGUCCCUUGGCAGCUGAGCAAUGAAA [MAT - Exclusion Theophlline B - Mod of Eli - D10] ?
-- reply criterion not met

-- ask apparent KD of MS2 coat protein >= 30 nM for UCCACACAUGAGGAUCACCCAUGUUGAGAUACCAGUAAACCAAAAUACCCUUGGCAGCUCCUACGCUCUUACAGCGGGAAUAUCC [theeternabot_sameState_MS2_Theo_A_46] ?
-- reply criterion not met

-- ask Identify whether the reported apparent KD of MS2 coat protein of the following sequence is 30 nM or greater: GUUUUAUACUCGGCCGCCACUGAGAGAGUCAUGUAAACAUGAGGAUCACCCAUGUAAUAUAUAUACAGGACCGGGAGUAGGGUAA [4.F]
-- reply criterion not met

-- ask Say whether UGCAUUAUACAUGGAUCACCCAUGUAGACACGAGGACCGGUACGGCCGCCACUCGGAAGAGGAAACAUGAGGAUCACCCAUGUGA [Try A SS t2] shows apparent KD of MS2 coat protein of 30 nM or more.
-- reply criterion met

-- ask Has AGCCACUCGAGUGAUCCUCACGAGUGGCAACGAGGACCGGUACGGCCGCCACUCGAAUAACAUGAGGAUCACCCAUGUUUAUAAU [#01 Tryptophan A - Same State] a recorded apparent KD of MS2 coat protein greater than or equal to 30 nM?
-- reply criterion met

----------
Tested on: MS2 coat protein
assay-info: apparent KD of MS2 coat protein; designed switch direction (-1 OFF switch, 1 ON switch): -1; higher = weaker reporter binding
protocol-conditions: input ligand: none
For each record, write down the corresponding apparent KD of MS2 coat protein.
Record the value in nM, omitting the unit from your answer.

-- ask Fill in reported apparent KD of MS2 coat protein for this entry: CCAGCGUAUGUUAGGAUAUGCUGGUCGAAAGAUCAGCAGAAGGAACAUGAGGAUCACCCAUGUGGAAAAGUUGG [Mod of JL 25 - Jieux - Brourd's mod of Exclusion 4] (Eterna round: R97, puzzle: Brourd's mod of Exclusion 4)
-- reply 30.4

-- ask Kindly indicate its recorded apparent KD of MS2 coat protein. Item: CCGCUGUGAGGAUAUUAGUAGUAGUCAGAAAAGACUAUUACUGAGAAGGCACAUGAGGAUCACCCAUGUGGCGG [Mat - Exclusion 4 - Eli Mod - D47] (Eterna round: R97, puzzle: Exclusion 4)
-- reply 21.5

-- ask Dear colleague, please send me the reported apparent KD of MS2 coat protein for AGUCAGGCGGUAGGAUAUCCAAAUCGAGUGACCCUCUCAUAACAUGAGGAUCACCCAUGUCGGUGGGAGAAGGGCCGUAAGGCA [Mat - Exclusion NG 2 - Mod of JL - D64] (Eterna round: R96, puzzle: Exclusion NG 2) when you can.
-- reply 30.9

-- ask Tell me apparent KD of MS2 coat protein reported for AAAUUCAGAGGAUAUGCGCAUAGAUAAGACUUUUUUUUUUAACAUGAGGAUCACCCAUGUAGAAGGCUGUAACA [Ex2 #50] (Eterna round: R97, puzzle: Exclusion 2)
-- reply 21.2

-- ask Indicate its recorded apparent KD of MS2 coat protein; the sequence in question is GUGGGUUACAUGAGGAUCACCCAUGUAUAGUGGGAAGAGAGAUAGGAUAUGAUGUGAGAAUUAUAUUAGAAGGAUCGAGACUAG [AK ExNG3-2.6] (Eterna round: R96, puzzle: Exclusion NG 3)
-- reply 351

-- ask # return recorded apparent KD of MS2 coat protein for input UAACUACAUGUAGGAUAUGCGUGGCGAAGCUAUGCAGAAGGACAUGAGGAUCACCCAUGUUUUAGCGUCUGCGUACAGAUGCGU [JL ENG1 1.50] (Eterna round: R96, puzzle: Exclusion NG 1)
-- reply 19.1

-- ask Return the recorded apparent KD of MS2 coat protein value; entry: ACAGUAUGAUCCGCUCAACAUGAGGAUCACCCAUGUGAUGACUAGGAUAUUAGUAGCCCGCGCAUUAAGAAGGAGUUACGAUUG [Eternabot solution 33] (Eterna round: R96, puzzle: Exclusion NG 3)
-- reply 23.6

-- ask Return the recorded apparent KD of MS2 coat protein value; entry: UAUUAGCAAGCAAAUGGGUACAUGAGGAUCACCCAUGUGCUCGUCUUAUAAGGUACUGUGACGAAAGUCACGGUCCC [mod--Eli7] (Eterna round: R97, puzzle: Sensor, turn-off variant 1)
-- reply 24

-- ask For the sequence AAGCAACAUGAGGAUCACCCAUGUGAGGAUAUACGCAUGCAUGCAUGCAUGCAUGCAAGUAGAAGGCACAAUAC [Design #16] (Eterna round: R97, puzzle: Exclusion 1) , give its measured apparent KD of MS2 coat protein value.
-- reply 35.3
